- Test Details: GSK_TCMDC: Inhibition Frequency Index (IFI). The number of non-kinase HTS assays where a compound showed > 50 % inhibition, expressed as a percentage of the number of such assays in which the compound was tested
- Format: functional
Whole data set: some 13,000 compounds, median “IFI” near 4, cut for the highest 2% near 17. The entries come from a sample that favours the highest values as a whole.
Provide the reported IFI of each item.
One number for each entry, in %.

Solved cases (5 shown):
>>> test_result("COc1cccc(NC(=O)Nc2ccc(Nc3nc(C)cc(N4CCCC4)n3)cc2)c1")
17.3
>>> test_result("CC(C)(C)c1ccc2[nH]c(-c3ccc(/C=C/C(=O)NCc4cccc(C(F)(F)F)c4)cc3)nc2c1")
2.9
>>> test_result("Cc1cc(N2CCCC2)nc(Nc2ccc(NC(=O)Cc3ccccc3)cc2)n1")
15.4
>>> test_result("Cc1cc(NC2CCN(Cc3ccccc3)CC2)nc(NCCCCc2ccccc2)n1")
10.6
>>> test_result("CCCCSc1ccc(CNCCCCCCNCc2ccc(SCCCC)c3ccccc23)c2ccccc12")
14.8

Provide IFI for all items below, preserving their order.
1. CCC(=O)Nc1ccc(Nc2nc(C)cc(N3CCCC3)n2)cc1
2. O=C(/C=C/c1ccc(Cl)c(Cl)c1)NCCCCCN1CCC(c2n[nH]c(-c3ccccc3)c2Br)CC1
3. O=C(Nc1cccc(F)c1)NC1CCN(CCCCCNC(=O)C2CC2c2ccc(Cl)c(Cl)c2)CC1 (centres undefined)
4. CCn1c(C(C)C)cc2c3c(N)nc(N)nc3ccc21

1. 7.84
2. 12.9
3. 11.5
4. 2.88

Give me IFI for each of these compounds, listed below.
1. O=C(Nc1ccc(F)c(C(F)(F)F)c1)N[C@H]1CCN(CCCCCNC(=O)C2CC2c2ccc(Cl)c(Cl)c2)C1 (some centres undefined)
2. O=C(Nc1ccc(Cl)c(C(F)(F)F)c1)N[C@H]1CCN(CCCCCNC(=O)C2CC2c2ccc(Cl)c(Cl)c2)C1 (some centres undefined)
3. O=C(Nc1ccc(Cl)c(C(F)(F)F)c1)NC1CCN(CCCCCNC(=O)C2CC2c2ccc(Cl)c(Cl)c2)CC1 (centres undefined)

1: 15.9; 2: 12.2; 3: 17.1

Quick one: give me IFI for each item below, same order please.
1. Cc1[nH]c(C)c(-c2ccc(CCc3ccc(N)cc3)cc2)c(=O)c1Cl
2. O=C(Nc1ccc(F)c(C(F)(F)F)c1)NC1CCN(CCCCCNC(=O)C2CC2c2ccc(Cl)c(Cl)c2)CC1 (centres undefined)
3. CCCOc1ccc(CNCCCCCCNCc2ccc(OCCC)c3ccccc23)c2ccccc12
4. O=C(Nc1ccc(Cl)cc1)NC1CCN(CCCCCNC(=O)C2CC2c2ccc(Cl)c(Cl)c2)CC1 (centres undefined)
5. CCN(CC)CCN(Cc1ccc(-c2ccc(C(F)(F)F)cc2)cc1)C(=O)Cn1c(CCc2cccc(F)c2F)cc(=O)cc1-c1ccccc1
6. O=c1c(Br)ccccc1Br

1. 1.89
2. 18.5
3. 15.6
4. 10.2
5. 11.3
6. 11.6

Form field: reported IFI of Cc1cc(N2CCCC2)nc(Nc2ccc(NC(=O)COc3ccccc3)cc2)n1
22.2

====

- Test Details: GSK_TCMDC: Inhibition Frequency Index (IFI). The number of non-kinase HTS assays where a compound showed > 50 % inhibition, expressed as a percentage of the number of such assays in which the compound was tested
- Assay type: functional
In all, about 13,000 compounds were measured (“IFI”: median about 4, highest 2% from about 17 on). The list comes from a sample in which the highest values are over-represented; it also holds close analogues and randomly drawn compounds.
Measured Metric: IFI (%)
One number for each entry, in %.

Answered examples (3):
>>> test_result("CN1CCC(N2CCN(Cc3cccc(-c4ccc(-c5nc6cc(C(F)(F)F)ccc6[nH]5)cc4)c3)CC2)CC1")
9.72
>>> test_result("CCCCN1CCN(c2cc(NS(=O)(=O)c3cccc(C(=O)Nc4ccc(C(F)(F)F)cc4)c3)ccc2OC)CC1")
3.55
>>> test_result("COc1ccc2c(=NN=C(C)c3ccccn3)cc(C)[nH]c2c1")
4.96

State the recorded IFI for every item in the following list.
1. COc1ccc(S(=O)(=O)Nc2ccc(C(=O)NCc3ccccc3C(F)(F)F)cc2)cc1N1CCN(CC2CC2)CC1
2. COc1c(OC)c(OC)c2ccccc2c1CNCCCCCCNCc1c(OC)c(OC)c(OC)c2ccccc12

[19.4, 14.8]

====

- Test Details: GSK_TCMDC: Inhibition Frequency Index (IFI). The number of non-kinase HTS assays where a compound showed > 50 % inhibition, expressed as a percentage of the number of such assays in which the compound was tested
- Type: functional
Whole data set: some 13,000 compounds, median “IFI” near 4, cut for the highest 2% near 17. For the sample, the highest values were picked, then their nearest neighbours and some compounds at random.
Measured Metric: IFI (%)
Answers are plain numbers, in %.

Worked cases, answers included:
>>> test_result("NC(=O)COc1c(C2CCN(CCCCNC(=O)c3ccc(-c4ccc(Cl)cc4)c(O)c3)CC2)ccc2c1CCCC2")
13.8
>>> test_result("Cc1nc(-c2cccc(Nc3nccc(NCC(O)c4cccc(C(F)(F)F)c4)n3)c2)cs1 (centres undefined)")
11
>>> test_result("O=c1cc(NCCCNCc2cn(S(=O)(=O)c3ccccc3)c3ccccc23)[nH]c2ccccc12")
5.88

State the recorded IFI for every item in the following list.
1. O=[N+]([O-])c1ccc2nc(Nc3ccc(Cl)c(Cl)c3)c(Nc3ccc(Cl)c(Cl)c3)nc2c1
2. Nc1cccc(CNCc2cccc(-c3ccc(-c4nc5ccccc5[nH]4)cc3)c2)c1
3. Cc1ccc(C(O)CNc2ccnc(Nc3cccc(-c4csc(C)n4)c3)n2)cc1 (centres undefined)

2.86
3.81
8.74

Would you be so kind as to report IFI for each listed record?
1. Cc1nc(-c2cccc(Nc3nccc(NCC(O)c4ccccc4C)n3)c2)cs1 (centres undefined)
2. Clc1ccc(Nc2nc3ccc(Cl)cc3nc2Nc2ccc(Cl)cc2)cc1
3. Cc1nc(-c2ccc(-c3ccc(NC(=O)c4coc5ccc(N6CC(C)N(C)C(C)C6)cc45)cc3)c(C)c2)no1 (centres undefined)

[13.6, 10.1, 4.08]

====

- Test Details: GSK_TCMDC: Inhibition Frequency Index (IFI). The number of non-kinase HTS assays where a compound showed > 50 % inhibition, expressed as a percentage of the number of such assays in which the compound was tested
- Assay type: functional
Over roughly 13,000 compounds, “IFI” has its median near 4; the highest 2% begin near 17. Many of the other results were omitted from the sample, so the highest values are more common in it than they were.
Would you mind telling me the reported IFI of each entry?
Answers are plain numbers, in %.

Reference set, count: 5
>>> test_result("COc1ccc(CCNCCCCCCNCCc2ccc(Cl)c3ccccc23)cc1OC")
9.42
>>> test_result("CN1CCN(c2ccc(Nc3ncc([N+](=O)[O-])c(Nc4ccccc4O)n3)cc2)CC1")
6.99
>>> test_result("CCOc1ccc(CNCCCCCCNCc2ccc(OCC)c3ccccc23)c2ccccc12")
15.4
>>> test_result("CN1CCC(NCc2cccc(-c3cccc(S(=O)(=O)NCc4ccccc4)c3)c2)CC1")
11.2
>>> test_result("COC(=O)c1ccc2nc(-c3cc(-c4cccc(-c5ccccc5)c4)cnc3N)[nH]c2c1")
2.94

Kindly give each listed record's IFI.
1. COc1ccc(CNc2ncnc3c2[nH]c2ccc(F)cc23)cc1
2. OCC1CCN(Cc2cccc(-c3cccc(-c4nc5cc(C(F)(F)F)ccc5[nH]4)c3)c2)CC1
3. CCCCCCN1CCCN(Cc2ccc(C(=O)Nc3ccc(Cl)cc3)cc2)CC1
4. COc1ccc2ccccc2c1CNCCCCCCNCc1c(OC)ccc2ccccc12
5. CCCCCCN1CCCN(Cc2ccc(C(=O)Nc3ccc(C(C)C)cc3)cc2)CC1
6. O=C1CCCN1CCCNCc1ccc(-c2ccc(-c3nc4cc(C(F)(F)F)ccc4[nH]3)s2)cc1
7. COc1ccc(CNCc2ccc(-c3ccc(-c4nc5cc(F)ccc5[nH]4)cc3)cc2)cc1

17.2
5.83
15.2
9.93
19.7
6.67
13.1

====

- Test Details: GSK_TCMDC: Inhibition Frequency Index (IFI). The number of non-kinase HTS assays where a compound showed > 50 % inhibition, expressed as a percentage of the number of such assays in which the compound was tested
- Assay type: functional
Whole data set: some 13,000 compounds, median “IFI” near 4, cut for the highest 2% near 17. The sample holds the highest values, similar compounds and a random draw of the others, so the mix is not that of the screen.
Measured Metric: IFI
Write the numeric value and follow it with the unit.

Example entries begin here.
>>> test_result("CN1CCN(c2ccc(Nc3nccc(-c4c(-c5cccc(NC(=O)c6c(F)cccc6F)c5)nn5ccccc45)n3)cc2)CC1")
"9.35%"
>>> test_result("FC(F)(F)c1cccc(Nc2nc3ccccc3nc2Nc2cccc(C(F)(F)F)c2)c1")
"10%"
>>> test_result("CCc1ccc(CN2CCC(CNC(=O)c3cc(-c4cccc(C(F)(F)F)c4)cs3)C2)cc1 (stereo unspecified)")
"14%"
>>> test_result("COc1ccc(NC(=O)CCNc2cc(C)nc(NCCc3ccc(F)cc3)n2)cc1")
"4.88%"
>>> test_result("Fc1ccc(NC(S)=NN=Cc2ccccn2)cc1")
"7.48%"
>>> test_result("CCOc1ccc2nc3cc(N)ccc3c(N)c2c1")
"2.08%"
>>> test_result("CCOc1ccc2nc3cc(NC(=O)c4ccco4)ccc3c(N)c2c1")
"20.5%"
>>> test_result("Cc1ccc(CN2CCCN(Cc3cccc(NC(=O)c4cc5ccccc5s4)c3)CC2)cc1")
"10.2%"
>>> test_result("Cc1ccc(CCC(C)NCC(O)c2cccc(Cl)c2)cc1 (stereo unspecified)")
"2.96%"
>>> test_result("C[C@H](Cc1ccc(Oc2ccc(C[C@@H](C)NC[C@H](O)c3cccc(Cl)c3)cc2)cc1)NC[C@H](O)c1cccc(Cl)c1")
"20.8%"

Hey, can you go through the list below and give me IFI for every item?
1. O=[N+]([O-])c1ccc2nc(Nc3cccc(C(F)(F)F)c3)c(Nc3cccc(C(F)(F)F)c3)nc2c1
2. CCOC(=O)c1ccc(NC(=O)N[C@H]2CCN(CCCCCNC(=O)/C=C/c3ccc(Cl)c(Cl)c3)C2)cc1
3. CCCC(C(=O)OCCNC)(c1ccccc1)c1ccccc1
4. C[C@H](Cc1ccc(CCc2ccc(C[C@@H](C)NC[C@H](O)c3cccc(Cl)c3)cc2)cc1)NC[C@H](O)c1cccc(Cl)c1
5. CC(C)CCNC(=O)C1Cc2c([nH]c3ccc(Br)cc23)C2(CCN(Cc3ccccc3)CC2)N1 (stereo unspecified)

5.88%
7.91%
3.6%
21.6%
7.04%

So what does the record say about IFI for Cc1[nH]c(C)c(-c2ccc(-c3ccc(Cl)cc3)cc2)c(=O)c1Cl ?
0.76%

The values you see were collected from ChEMBL document CHEMBL1157539.
